# IC50 per entry
Target: Phosphatidylinositol 4,5-bisphosphate 3-kinase catalytic subunit delta isoform (Homo sapiens, UniProt O00329)
Sequence (O00329 whole entry, canonical isoform): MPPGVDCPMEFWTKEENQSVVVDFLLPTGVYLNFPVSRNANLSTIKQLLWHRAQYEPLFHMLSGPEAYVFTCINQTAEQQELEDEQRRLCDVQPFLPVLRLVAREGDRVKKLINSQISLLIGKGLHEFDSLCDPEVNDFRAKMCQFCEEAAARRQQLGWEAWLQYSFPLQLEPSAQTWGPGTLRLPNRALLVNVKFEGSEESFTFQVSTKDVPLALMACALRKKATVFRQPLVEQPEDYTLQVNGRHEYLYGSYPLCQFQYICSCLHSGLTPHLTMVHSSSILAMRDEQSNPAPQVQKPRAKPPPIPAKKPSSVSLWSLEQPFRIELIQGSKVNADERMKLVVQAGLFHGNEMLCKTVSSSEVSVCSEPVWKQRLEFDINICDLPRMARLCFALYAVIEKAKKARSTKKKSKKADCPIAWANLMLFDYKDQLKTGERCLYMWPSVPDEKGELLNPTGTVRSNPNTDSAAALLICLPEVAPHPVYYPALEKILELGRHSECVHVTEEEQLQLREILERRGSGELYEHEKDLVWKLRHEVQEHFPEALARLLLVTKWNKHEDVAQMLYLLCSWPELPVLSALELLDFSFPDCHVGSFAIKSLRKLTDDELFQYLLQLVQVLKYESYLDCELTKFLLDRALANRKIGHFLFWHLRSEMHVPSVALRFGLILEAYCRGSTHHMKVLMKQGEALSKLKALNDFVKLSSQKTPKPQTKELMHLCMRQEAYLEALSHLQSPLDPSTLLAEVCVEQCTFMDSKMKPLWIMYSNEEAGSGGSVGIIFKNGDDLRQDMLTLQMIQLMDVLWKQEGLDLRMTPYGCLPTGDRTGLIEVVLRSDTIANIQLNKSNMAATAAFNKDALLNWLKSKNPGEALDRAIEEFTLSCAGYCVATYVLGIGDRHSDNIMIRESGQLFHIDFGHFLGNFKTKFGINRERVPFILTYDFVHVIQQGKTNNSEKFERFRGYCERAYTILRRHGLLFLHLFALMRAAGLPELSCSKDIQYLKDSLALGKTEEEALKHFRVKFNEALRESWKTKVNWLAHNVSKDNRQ
Settings: read-out: IC50
readout_type: IC50

{"compound": "Cc1oc2ncn(CC(C)C)c(=O)c2c1C(=O)NCc1ccccc1", "readout_type": "IC50", "result": "2100 nM"}
{"compound": "CC[C@H]1CN(c2sc(-c3nnc[nH]3)c(-c3ccc(Cl)cc3Cl)c2C#N)CCO1", "readout_type": "IC50", "result": "< 100 nM"}
{"compound": "CC(Nc1ncnc2[nH]cnc12)c1c(C#N)c2ccc(Cl)cc2n1-c1cccc(F)c1 (centres undefined)", "readout_type": "IC50", "result": "< 50 nM"}
{"compound": "CC(Nc1ncnc2[nH]cnc12)c1cc(Cl)c2cncn2c1-c1cccc(F)c1 (centres undefined)", "readout_type": "IC50", "result": "< 100 nM"}
{"compound": "O=C(NCC(=O)N1CCCC1)Nc1nc2ccc(-c3cncc(C(F)(F)F)c3)cn2n1", "readout_type": "IC50", "result": "< 100 nM"}
{"compound": "CC(=O)Nc1nc2ccc(-c3nn(C4CCCC4)c4ncnc(N)c34)cc2s1", "readout_type": "IC50", "result": "< 50 nM"}
{"compound": "c1ccc2c(N3CCOCC3)nc(-c3cccc4[nH]ccc34)cc2c1", "readout_type": "IC50", "result": "260 nM"}
{"compound": "Cn1c(C(=O)NCC(F)(F)F)nc2c(N3CCC(n4c(=O)[nH]c5ncccc54)CC3)ncnc21", "readout_type": "IC50", "result": "< 50 nM"}
{"compound": "Cc1nc(NC(=O)NCCC(=O)OC(C)(C)C)sc1-c1ccc(S(C)(=O)=O)c(F)c1", "readout_type": "IC50", "result": "16 nM"}
{"compound": "O=C1NC(=O)/C(=C/c2ccc3ncnc(N4CCC(C(F)(F)F)CC4)c3n2)S1", "readout_type": "IC50", "result": "6 nM"}
{"compound": "OCCn1cnc2c(-n3c(C(F)F)nc4ccccc43)nc(N3CCOCC3)nc21", "readout_type": "IC50", "result": "< 30 nM"}
{"compound": "COc1ccc(-c2nn(C)c3nc(N)nc(NCc4ccccc4)c23)cc1F", "readout_type": "IC50", "result": "< 2000 nM"}
{"compound": "CN(C)CCCOc1cccc2c1nc(C(F)F)n2-c1nc(OC2CCN(C(=O)CCl)CC2)nc(N2CCOCC2)n1", "readout_type": "IC50", "result": "> 100 nM"}
{"compound": "CC(=O)Nc1nc(C)c(-c2ccc(Cl)c(S(=O)(=O)N[C@@H](C)C(=O)OC3CCCC3)c2)s1", "readout_type": "IC50", "result": "< 100 nM"}
